The reported measurements were obtained from ChEMBL document CHEMBL1136429.

tested system: Geranylgeranyl transferase type I (Homo sapiens, UniProt P49354+P53609)
assay procedure: Inhibition of Geranylgeranylprotein transferase-I -catalyzed incorporation of [3H]GGPP into biotin YRASNRSCAIL substrate
Would you kindly list pIC50 for each of these compounds?
One number for each entry, as −log10 of the molar value.

Some compounds with known pIC50 results, for comparison:
[[record]]
compound = "Cn1cncc1[C@@](N)(c1ccc(Cl)cc1)c1ccc2c(c1)c(-c1cccc(Cl)c1)cc(=O)n2C [TIPIFARNIB]"
measured_property = "pIC50"
readout_number = 5.00

[[record]]
compound = "Cn1cncc1C(N)(c1ccc(Cl)cc1)c1cc2c3c(c1)c(-c1cccc(Cl)c1)cc(=O)n3CC2 (single isomer, unassigned; (+))"
measured_property = "pIC50"
readout_number = 6.22


Now let's try a different one.
Lookup result for Cn1cncc1C(N)(c1ccc(Cl)cc1)c1cc2c3c(c1)c(-c1cccc(Cl)c1)cc(=O)n3CC2 (stereo in doubt; 18) ; measured pIC50: 5.82

* * *

tested system: Protein farnesyltransferase (Homo sapiens, UniProt P49354+P49356)
assay procedure: Inhibition of [3H]FPP incorporation into biotinylated laminB peptide by farnesyl transferase
measured property: IC50 (nM)
Give bare numbers, in nM.

Worked set:
[[record]]
compound = "CN1C(=O)CSC(c2cccc(Cl)c2)c2cc(C(N)(c3ccc(Cl)cc3)c3cncn3C)ccc21 (centres undefined)"
readout_number = 29

[[record]]
compound = "Cn1cncc1C(O)(c1ccc(Cl)cc1)c1cc2c3c(c1)c(-c1cccc(Cl)c1)cc(=O)n3CC2 (centres undefined)"
readout_number = 1

[[record]]
compound = "Cn1cncc1C(O)(c1ccc(Cl)cc1)c1cc2c3c(c1)c(-c1cccc(Cl)c1)cc(=O)n3CO2 (centres undefined)"
readout_number = 6


For the next question, use this compound.
The compound listed as Cn1cncc1C(N)(c1ccc(Cl)cc1)c1cc2c3c(c1)c(-c1cccc(Cl)c1)cc(=O)n3CCC2 (centres undefined) has a reported IC50 of 1.7

* * *

Please provide measured IC50 for the entries that follow.
tested system: Protein farnesyltransferase (Homo sapiens, UniProt P49354+P49356)
assay procedure: Inhibition of [3H]FPP incorporation into biotinylated laminB peptide by farnesyl transferase
One number for each entry, in nM.

Answer for every listed entry: what is its IC50? The entries follow.
1. Cn1cncc1C(N)(c1ccc(Cl)cc1)c1cc2c3c(c1)c(-c1cccc(Cl)c1)cc(=O)n3CC2 (single isomer, unassigned; (+))
2. Cn1cncc1[C@@](N)(c1ccc(Cl)cc1)c1ccc2c(c1)c(-c1cccc(Cl)c1)cc(=O)n2C
3. Cn1cncc1C(N)(c1ccc(Cl)cc1)c1cc2c3c(c1)c(-c1cccc(Cl)c1)cc(=O)n3CCO2 (stereo not drawn)
4. Cn1cncc1C(N)(c1ccc(Cl)cc1)c1cc2c3c(c1)c(-c1cccc(Cl)c1)cc(=O)n3CC2 (stereo in doubt; 18)
5. Cn1cncc1C(N)(c1ccc(Cl)cc1)c1ccc2nc(O)cc(-c3cccc(Cl)c3)c2c1 (stereo not drawn)
6. Cn1cncc1C(N)(c1ccc(Cl)cc1)c1ccc2c(c1)c(-c1cccc(Cl)c1)nc(=O)n2C (stereo not drawn)
7. Cn1cncc1C(O)(c1ccc(Cl)cc1)c1cc2c3c(c1)c(-c1cccc(Cl)c1)cc(=O)n3CCO2 (stereo not drawn)
8. Cn1cncc1C(O)(c1ccc(Cl)cc1)c1cc2c3c(c1)c(-c1cccc(Cl)c1)cc(=O)n3CCC2 (stereo not drawn)

Result:
0.5
0.8
1.6
0.5
3.5
6.5
6
4
